protocol-summary: soluble on expression in E. coli; label from the status in PepcDB or PDB records
property-label: soluble on expression in E. coli

Completed entries (count: 6):
ordered-residues: MRNKADNKKRNFLTHSEIESLLKAANTGPHATRNYCLILLCFIHGFRASEICRLRISDIDLKAKCIYIHRLKKGFSTTHPLLNKEVQALKNWLSIRTSYPHAESEWVFLSRKGNPLSRQQFYHIISTSGGNAGLSLEIHPHMLRYSCGFALANMGIDTRLI
property-label: soluble on expression in E. coli
assay-value: not soluble
//
ordered-residues: MGSDKIHHHHHHMISEISHDVIWDLYEGEDYRDKILAEKWDVVFGEKILEMEDTLFVQSLRELELALKYAAARKDLETIKARFNLLLYTPELQGAKIKEILFQVLKFYNSFSIFALVSEKGVHRHAYVDFVTGGNYLSLIYHEDLPLNINSHTVFIDDVPPDFSPAGLGGRKIILGMDSTPKNNIPFVEIPPLRERKMDIPYMLDGVIKSLQFQGKTVKIDDDLTKLLIEYHWPGNTQEFLEKVYEIITLENPVDQAMKIASGIDEIKGLNLKEFVDSLVEFVEKKVIKKALEENEGNRKKVCEVLNMNYKTLSYKMKKYGLT
property-label: soluble on expression in E. coli
assay-value: not soluble
//
ordered-residues: MRTHDDTWDIKTSVGTTAVMVAAARAAETDRPDALIRDPYAKLLVTNTGAGALWEAMLDPSMVAKVEAIDAEAAAMVEHMRSYQAVRTNFFDTYFNNAVIDGIRQFVILASGLDSRAYRLDWPTGTTVYEIDQPKVLAYKSTTLAEHGVTPTADRREVPIDLRQDWPPALRSAGFDPSARTAWLAEGLLMYLPATAQDGLFTEIGGLSAVGSRIAVETSPLHGDEWREQMQLRFRRVSDALGFEQAVDVQELIYHDENRAVVADWLNRHGWRATAQSAPDEMRRVGRWGDGVPMADDKDAFAEFVTAHRL
property-label: soluble on expression in E. coli
assay-value: soluble
//
ordered-residues: ITFEIAGDKLLMTLVPERLRGETASFDIEANGKVYVERGRRITARHIKALEKDNISQVVVPSEYILGKVASKDYVDLESGEIICPANGEISLETLAKLAQAG
property-label: soluble on expression in E. coli
assay-value: not soluble
//
ordered-residues: MTQVRETVSFKAGDVILYPGVPGPRDRAYRVLEGLVRLEAVDEEGNALTLRLVRPGGFFGEEALFGQERIYFAEAATDVRLEPLPENPDPELLKDLAQHLSQGLAEAYRRIERLATQRLKNRMAAALLELSETPLAHEEEGKVVLKATHDELAAAVGSVRETVTKVIGELAREGYIRSGYGKIQLLDLKGLKELAESRGQGR
property-label: soluble on expression in E. coli
assay-value: soluble
//
ordered-residues: GVLPVEKCNLEDSACMTSAFQQALPTFVAGLPDHGVEVMDVLDLDDFAFDLSGLQFTLKEGKLKGLKGAVIDNVKWDLKKKNIEVDFHLDATVKGHYTAGGRILILPITGDGQMKLKLKNIHIHLVVSYEMEKDAEGVDHVIFKKYTVTFDVKDNAQFGLTNLFNGNKELSDTMLTFLNQNWKQVSEEFGKPVMEAAAKKIFKNIKHFLAKVPIAEIANV
property-label: soluble on expression in E. coli
assay-value: soluble

Q: Using known records, supply soluble on expression in E. coli for `SLGFIMKLTKTALCTALFATFTFSANAQTYPDLPVGIKGGTGALIGDTVYVGLGSGGDKFYTLDLKDPSAQWKEIATFPGGERNQPVAAAVDGKLYVFGGLQKNEKGELQLVNDAYRYNPSDNTWMKLPTRSPRGLVGSSGASHGDKVYILGGSNLSIFNGFFQDTVAAGEDKAKKDEIAAAYFDQRPEDYFFTTELLSYEPSTNKWRNEGRIPFSGRAGAAFTIQGNELVVVNGEIKPGLRTAETHQGKFTAKGVQWKNLPDLPAPKGKSQDGLAGALSGYSNGHYLVTGGANFPGSIKQFKEGKLHAHKGLSKAWHNEVYTLNNGKWRIVGELPMNIGYGFSVSYNNKVLLIGGETDGGKALTSVKAISYDGKKLTIE`
Result: not soluble

Q: Output soluble on expression in E. coli of `MKIKEMVTSEMPRERLLSHGAKSLSNTELLAILINTGRKGFSSIDISNELLKSASNLNELKKSSINDLIKVKGIGLQKAITLKAAFELGERMGRRAENNRIKITQPSDVADYMIPTMKDLTQEHFVILLLNSKNVVIKETCVFKGTLNSSIVHPREIFSIAVRENANAIIAVHNHPSGDVLTIV`
Result: not soluble

Q: Tell me soluble on expression in E. coli reported for `MGSDKIHHHHHHMSKIVVLGAGPAGCSAGYHLAKSGHKVMLIDKDCFPRDKTCGDGISLGSVQALSTMGIYPDDIKRLASEYAQIDGFLLGVSNEISHLCPTELKGYCIPRFVFDNLLYQKAINAGCVARTQRISDIEGYHQELYSDFDYIIDARGVYAGEANAIAIRAYWSIKVADFPKIYLSKAQIYFDKAFGVNGYGWIFPVAVDSELVKLNVGVGVWLDEYQKNNTNIIRLFNEFVQRNQATKQLLSLVVSQQKPKAYPLATAKRANTVSYGKVFKIGDAANLTDPLTGEGIANAILSGLYVTQAINMSTSPELASENWQRLYQLYFEPDLDAGLQIKSFRKFSFINKLLIWLMNRNKPFAEQVTYTFAGLIPYKKLLP`
Result: not soluble

Q: Query soluble on expression in E. coli for `MNVDLHCHSTASDGALSPTALVARAHEYGVRVLSLTDHDTLEGLEEARTAAHSLGMQLVNGVELSCTWGGATIHVLGYGFDTQAPALTEAIARLHEGRWLRAEEISRKLAIKGMPGALEGARAIQQALGDSGNAPARPHFADFMVRAGFVKDRAEAFRKWLGAGKLGDVKQHWPTLEDTVATLRASGAWVSLAHPSHYDFTRSKRRKLVGDFVQAGGHAIEVVNGMQPADQVGTLAILAREFGLLVSAGSDFHGPGNWGEIGTYRPVPEDLPPLWCRFKHEQPTAAV`
Result: not soluble

Q: Please supply the value of reported soluble on expression in E. coli for the item `MGSDKIHHHHHHSCEKDPDLSKLDNNFTVYTNYDSKTNFNDFKTYCLPDSILLIGQGMKAEFWKDENAQEIIKQVADEMDTRGYTRVKVIKNANIGLQLSFTRQTTQIIGTGGWYGGGWYNGWWGPGYWGPYWNDWYYPYPVTYSYNTGTLIMEMVNLTDHPEDTSQKVKLPVIWHSYATGLLFENSKYNMQLTLDAVNQAFDQSPYIKKS`
Result: not soluble
